# key: entry, value: IC50
target: Tel-FGFR4 (Homo sapiens (Human), UniProt P22455); assay: In vitro cellular kinase assay for FGFR4 (BaF3-Tel-FGFR4 cells, MSD capture ELISA of tyrosine phosphorylation); type: cell-based; settings: BaF3-Tel-FGFR4 cells, 1 hour incubation; read-out: Cellular BaF3 FGFR4 IC50
Sequence (P22455 other isoform, or with tags, fused parts or gaps): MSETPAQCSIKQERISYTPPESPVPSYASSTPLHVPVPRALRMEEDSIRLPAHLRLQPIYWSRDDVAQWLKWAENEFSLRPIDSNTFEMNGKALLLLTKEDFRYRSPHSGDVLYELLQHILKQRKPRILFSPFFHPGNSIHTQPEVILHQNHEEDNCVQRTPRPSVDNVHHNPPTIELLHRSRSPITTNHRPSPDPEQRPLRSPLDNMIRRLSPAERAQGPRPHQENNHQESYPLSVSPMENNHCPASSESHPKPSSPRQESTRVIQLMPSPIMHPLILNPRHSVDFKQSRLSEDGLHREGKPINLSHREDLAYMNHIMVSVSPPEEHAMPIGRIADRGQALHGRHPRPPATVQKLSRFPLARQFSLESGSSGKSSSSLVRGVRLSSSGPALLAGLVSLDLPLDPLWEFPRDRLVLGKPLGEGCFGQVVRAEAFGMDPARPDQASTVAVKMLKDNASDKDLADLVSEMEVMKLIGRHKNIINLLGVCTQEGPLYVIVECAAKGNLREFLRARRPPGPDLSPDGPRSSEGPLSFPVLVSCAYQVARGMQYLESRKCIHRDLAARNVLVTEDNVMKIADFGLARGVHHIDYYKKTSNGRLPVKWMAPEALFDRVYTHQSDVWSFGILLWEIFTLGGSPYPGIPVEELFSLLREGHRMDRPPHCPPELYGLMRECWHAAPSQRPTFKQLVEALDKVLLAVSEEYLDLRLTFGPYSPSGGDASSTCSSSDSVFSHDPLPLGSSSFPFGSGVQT
Structures can show the parent of a compound that is named as a salt.

{"columns": ["Molecule", "Units Text", "Comparison Operator", "IC50"],
 "data": [
  ["COC[C@@H](C)Oc1nc(NC(=O)N2CCCc3cc(CO)c(C=O)nc32)ncc1Cl", "nM", "=", 105],
  ["N#Cc1cnc(NC(=O)N2CCCc3cc(CO)c(C=O)nc32)nc1O[C@H]1CCOC1", "nM", "=", 43],
  ["CN1CCC(COc2cc(NC(=O)N3CCCc4cc(CO)c(C=O)nc43)ncc2C#N)CC1", "nM", "=", 17],
  ["CC(=O)N(C)Cc1cc2c(nc1C=O)N(C(=O)Nc1cc(NCCOC(F)(F)F)c(C#N)cn1)CCC2", "nM", "=", 5.2],
  ["N#Cc1cnc(NC(=O)N2CCCc3cc(CO)c(C=O)nc32)cc1OC1CN2CCC1CC2 (racemic)", "nM", "=", 83.5],
  ["COCCNc1cc(NC(=O)N2CCCc3cc(CN(CCN(C)C)S(C)(=O)=O)c(C=O)nc32)ncc1C#N", "nM", "=", 18.5],
  ["CCCCC(O)c1ccc(NC(=O)N2CCCc3ccc(C=O)nc32)nc1 (racemic)", "nM", "=", 2610],
  ["COCCNc1cc(NC(=O)N2CCCc3cc(CN4CCNCC4=O)c(C=O)nc32)ncc1C#N [Example 110, hydrochloride]", "nM", "=", 8.6],
  ["COC[C@@H](C)Oc1cc(NC(=O)N2CCCc3cc(CN4C(=O)OC[C@@H]4C)c(C=O)nc32)ncc1C#N", "nM", "=", 3.9],
  ["COCCNc1cc(NC(=O)N2CCCc3cc(CN4CC[C@@H](O)C4=O)c(C=O)nc32)ncc1C#N", "nM", "=", 6.2],
  ["COCCOc1cc(NC(=O)N2CCCc3cc(CN(C)C)c(C=O)nc32)ncc1C#N", "nM", "=", 713],
  ["N#Cc1cnc(NC(=O)N2CCCc3ccc(C=O)nc32)cc1Cl", "nM", ">", 3000],
  ["N#Cc1cnc(NC(=O)N2CCCc3cc(CO)c(C=O)nc32)cc1OCC(F)(F)F", "nM", "=", 14.5],
  ["CC(C)(O)CNc1cc(NC(=O)N2CCCc3cc(CO)c(C=O)nc32)ncc1C#N", "nM", "=", 12],
  ["COCCNc1cc(NC(=O)N2CCCc3cc(-c4cccs4)c(C=O)nc32)ncc1C#N", "nM", "=", 37],
  ["COC[C@@H](Oc1cc(NC(=O)N2CCCc3cc(C(F)F)c(C=O)nc32)ncc1C#N)C(F)(F)F", "nM", "=", 142],
  ["CC(=O)N1CCN(Cc2cc3c(nc2C=O)N(C(=O)Nc2cc(OC(C)C)c(C#N)cn2)CCC3)CC1", "nM", "=", 20.5],
  ["CN1CCC2(CCN(c3cc(NC(=O)N4CCCc5cc(CO)c(C=O)nc54)ncc3C#N)CC2)C1", "nM", "=", 67],
  ["COCCNc1cc(NC(=O)N2CCCc3cc(CN4CC[N+](C)([O-])CC4=O)c(C=O)nc32)ncc1C#N (centres unmarked)", "nM", "=", 41.3],
  ["N#Cc1cnc(NC(=O)N2CCCc3ccc(C=O)nc32)cc1C#N", "nM", "=", 914],
  ["CN1CCN(Cc2cc3c(nc2C=O)N(C(=O)Nc2cc(NC45CC(C4)C5)c(C#N)cn2)CCC3)C(=O)C1", "nM", "=", 19],
  ["N#Cc1cnc(NC(=O)N2CCCc3cc(CO)c(C=O)nc32)cc1N[C@@H]1[C@H]2CC[C@H](C2)[C@@H]1CO (racemic)", "nM", "=", 14.6],
  ["O=Cc1ccc2c(n1)N(C(=O)Nc1cc(Cl)c(Cl)cn1)CCC2", "nM", ">", 3000],
  ["CC(C)n1cnc2cnc(NC(=O)N3CCCc4cc(CN5CCCC5=O)c(C=O)nc43)cc21", "nM", "=", 94],
  ["O=Cc1nc2c(cc1CO)CCCN2C(=O)Nc1ncc(Cl)c(O[C@H]2CCOC2)n1", "nM", "=", 95],
  ["O=Cc1nc2c(cc1CO)CCCN2C(=O)Nc1cc(O[C@H]2CCOC2)ccn1", "nM", "=", 1570]
]}
